Exercise: for every item that follows, state its recorded IC50.
# subject of test: Lysine-specific demethylase 5A (Homo sapiens)
# Sequence (P29375 whole entry, the tested form may be a part): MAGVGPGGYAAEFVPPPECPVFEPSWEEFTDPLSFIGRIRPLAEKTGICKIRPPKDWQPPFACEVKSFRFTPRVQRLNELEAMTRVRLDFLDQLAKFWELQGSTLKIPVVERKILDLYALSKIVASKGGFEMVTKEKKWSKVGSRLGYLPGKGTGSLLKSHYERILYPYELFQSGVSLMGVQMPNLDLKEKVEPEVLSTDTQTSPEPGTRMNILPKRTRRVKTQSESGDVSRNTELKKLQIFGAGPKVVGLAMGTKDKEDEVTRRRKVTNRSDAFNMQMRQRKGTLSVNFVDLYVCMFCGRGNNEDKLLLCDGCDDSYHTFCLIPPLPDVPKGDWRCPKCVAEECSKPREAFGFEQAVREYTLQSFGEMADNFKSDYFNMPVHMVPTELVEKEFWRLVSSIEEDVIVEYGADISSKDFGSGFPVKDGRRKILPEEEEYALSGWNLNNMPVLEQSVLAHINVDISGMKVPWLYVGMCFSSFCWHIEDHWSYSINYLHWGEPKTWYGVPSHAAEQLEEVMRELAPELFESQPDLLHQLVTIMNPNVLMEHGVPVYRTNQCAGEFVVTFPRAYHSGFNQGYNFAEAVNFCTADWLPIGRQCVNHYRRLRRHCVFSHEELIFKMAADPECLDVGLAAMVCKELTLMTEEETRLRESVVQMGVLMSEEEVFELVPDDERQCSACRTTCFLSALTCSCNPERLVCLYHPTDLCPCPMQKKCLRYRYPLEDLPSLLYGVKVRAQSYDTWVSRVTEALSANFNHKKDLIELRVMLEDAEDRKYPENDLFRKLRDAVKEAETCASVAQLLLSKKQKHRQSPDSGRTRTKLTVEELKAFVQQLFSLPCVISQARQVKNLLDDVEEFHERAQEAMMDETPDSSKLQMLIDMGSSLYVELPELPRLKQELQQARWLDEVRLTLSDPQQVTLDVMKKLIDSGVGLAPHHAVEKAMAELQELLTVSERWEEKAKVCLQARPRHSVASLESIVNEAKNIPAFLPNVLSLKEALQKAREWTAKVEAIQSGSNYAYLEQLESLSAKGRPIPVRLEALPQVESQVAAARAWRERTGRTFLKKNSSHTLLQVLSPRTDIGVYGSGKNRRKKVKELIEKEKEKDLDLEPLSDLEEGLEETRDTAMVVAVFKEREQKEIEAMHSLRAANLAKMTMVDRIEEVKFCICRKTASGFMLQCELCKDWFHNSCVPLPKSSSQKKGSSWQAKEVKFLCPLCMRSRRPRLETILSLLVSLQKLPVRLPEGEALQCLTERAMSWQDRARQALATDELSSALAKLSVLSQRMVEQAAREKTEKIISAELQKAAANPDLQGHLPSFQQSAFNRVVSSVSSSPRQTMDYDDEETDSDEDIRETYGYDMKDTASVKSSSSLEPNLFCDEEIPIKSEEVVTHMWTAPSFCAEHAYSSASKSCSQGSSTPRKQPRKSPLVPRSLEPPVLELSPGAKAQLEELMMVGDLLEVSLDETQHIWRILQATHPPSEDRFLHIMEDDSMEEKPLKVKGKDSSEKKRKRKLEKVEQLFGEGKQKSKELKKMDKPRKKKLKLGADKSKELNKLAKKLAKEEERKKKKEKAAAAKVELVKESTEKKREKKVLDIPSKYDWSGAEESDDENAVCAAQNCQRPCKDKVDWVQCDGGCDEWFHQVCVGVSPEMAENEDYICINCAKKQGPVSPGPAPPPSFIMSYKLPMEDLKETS
# method: Inhibition of ARID/PHD1 domain truncated human N-terminal His-SUMO-tagged KDM5A (1 to 739 residues) expressed in Escherichia coli using H3K4me3 as substrate preincubated for 15 mins followed by substrate addition measured after 15 mins in presence of 1 mM alpha-KG by FDH coupled assat
The reply should be a number in µM, with the unit left off.

// Input: CC(C)c1cc(C(=O)N2CC[C@H](NC(=O)C3CC3)C2)[nH]n1 . Output its IC50 only.
140

Hello, please tell me recorded IC50 for this one: CC(C)c1cc(C(=O)N2CC[C@@H](NC(=O)C3CC3)C2)[nH]n1
22
